Reported Emax is given for each of the following molecules.
# measured_target: hV1b-R (Homo sapiens)
# Sequence (P47901 whole entry): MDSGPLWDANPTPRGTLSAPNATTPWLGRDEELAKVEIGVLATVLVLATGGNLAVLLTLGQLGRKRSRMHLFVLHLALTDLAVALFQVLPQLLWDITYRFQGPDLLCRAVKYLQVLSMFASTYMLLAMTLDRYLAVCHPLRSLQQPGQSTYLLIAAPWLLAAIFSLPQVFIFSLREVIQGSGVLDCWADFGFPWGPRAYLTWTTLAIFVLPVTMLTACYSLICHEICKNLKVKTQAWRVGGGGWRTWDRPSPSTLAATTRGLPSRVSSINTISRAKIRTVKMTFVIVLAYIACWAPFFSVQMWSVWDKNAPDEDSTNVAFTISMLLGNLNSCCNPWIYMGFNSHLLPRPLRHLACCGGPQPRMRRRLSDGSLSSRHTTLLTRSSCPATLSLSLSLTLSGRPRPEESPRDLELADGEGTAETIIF
# protocol: Phospholipase C assay
# Format: cell-based
# assay_conditions: read-out: CHO hV1b-R Emax
Positions of bridges follow the written chain, without caps; N, C: chain ends. Non-standard residues stand in square brackets, D forms with d. Residues, ends and D or L forms follow the SMILES beside them. Groups on a side chain read outwards from the residue. *: point of attachment. X1 = CC1(C)C(C=CC=CC=C2N(CCCS(=O)(=O)O)c3ccc(S(=O)(=O)O)cc3C2(C)CCCCCC(=O)*)=[N+](CCCS(=O)(=O)[O-])c2ccc(S(=O)(=O)O)cc21; X2 = N=c1ccc2c(-c3ccc(C(=O)*)cc3C(=O)O)c3ccc(N)c(S(=O)(=O)O)c3oc-2c1S(=O)(=O)O; Aun = NCCCCCCCCCCC(=O)O; Ahp = NCCCCCCC(=O)O; Mpa = O=C(O)CCS
parameter: Emax (%)

molecule="CC(C)C[C@@H]1NC(=O)[C@H](Cc2ccccc2)NC(=O)[C@H](Cc2ccc(O)cc2)NC(=O)CCSSC[C@@H](C(=O)N2CCC[C@H]2C(=O)N[C@@H](CCCCNC(=O)CCCCCCNC(=O)CCCCCC2(C)C(=CC=CC=CC3=[N+](CCCS(=O)(=O)[O-])c4ccc(S(=O)(=O)O)cc4C3(C)C)N(CCCS(=O)(=O)O)c3ccc(S(=O)(=O)O)cc32)C(=O)NCC(N)=O)NC(=O)[C@H](CC(N)=O)NC1=O (stereo partly shown) [Analogue 7, d[Leu^4,Lys(Aha-Alexa 647)^8]VP] ([Mpa]YFLNCPK([Ahp-X1])G-NH2; disulfide 1-6)" data_value=107
molecule="CC(C)C[C@@H]1NC(=O)[C@H](Cc2ccccc2)NC(=O)[C@H](Cc2ccc(O)cc2)NC(=O)CCSSC[C@@H](C(=O)N2CCC[C@H]2C(=O)N[C@@H](CCCCNC(=O)c2ccc(-c3c4ccc(=N)c(S(=O)(=O)O)c-4oc4c(S(=O)(=O)O)c(N)ccc34)c(C(=O)O)c2)C(=O)NCC(N)=O)NC(=O)[C@H](CC(N)=O)NC1=O [Analogue 2, d[Leu^4,Lys(Alexa 488)^8]VP] ([Mpa]YFLNCPK(X2)G-NH2; disulfide 1-6)" data_value=93.1
molecule="CC(C)C[C@@H]1NC(=O)[C@H](Cc2ccccc2)NC(=O)[C@H](Cc2ccc(O)cc2)NC(=O)CCSSC[C@@H](C(=O)N2CCC[C@H]2C(=O)N[C@@H](CCCCNC(=O)CCCCCCCCCCNC(=O)CCCCCC2(C)C(=CC=CC=CC3=[N+](CCCS(=O)(=O)[O-])c4ccc(S(=O)(=O)O)cc4C3(C)C)N(CCCS(=O)(=O)O)c3ccc(S(=O)(=O)O)cc32)C(=O)NCC(N)=O)NC(=O)[C@H](CC(N)=O)NC1=O (stereo partly shown) [Analogue 9] ([Mpa]YFLNCPK([Aun-X1])G-NH2; disulfide 1-6)" data_value=102
molecule="CC(C)C[C@@H]1NC(=O)[C@H](Cc2ccccc2)NC(=O)[C@H](Cc2ccc(O)cc2)NC(=O)CCSSC[C@@H](C(=O)N2CCC[C@H]2C(=O)N[C@@H](CCCCNC(=O)CCCCCC2(C)C(=CC=CC=CC3=[N+](CCCS(=O)(=O)[O-])c4ccc(S(=O)(=O)O)cc4C3(C)C)N(CCCS(=O)(=O)O)c3ccc(S(=O)(=O)O)cc32)C(=O)NCC(N)=O)NC(=O)[C@H](CC(N)=O)NC1=O (stereo partly shown) [Analogue 3] ([Mpa]YFLNCPK(X1)G-NH2; disulfide 1-6)" data_value=112
